Source: patent US20240076386A1

Target: T1, human E-selectin, cell-surface expressed (human, UniProt P16581 22-610)
T1 construct: also called CHO-human E-selectin cells; human CHO-E
T1 sequence: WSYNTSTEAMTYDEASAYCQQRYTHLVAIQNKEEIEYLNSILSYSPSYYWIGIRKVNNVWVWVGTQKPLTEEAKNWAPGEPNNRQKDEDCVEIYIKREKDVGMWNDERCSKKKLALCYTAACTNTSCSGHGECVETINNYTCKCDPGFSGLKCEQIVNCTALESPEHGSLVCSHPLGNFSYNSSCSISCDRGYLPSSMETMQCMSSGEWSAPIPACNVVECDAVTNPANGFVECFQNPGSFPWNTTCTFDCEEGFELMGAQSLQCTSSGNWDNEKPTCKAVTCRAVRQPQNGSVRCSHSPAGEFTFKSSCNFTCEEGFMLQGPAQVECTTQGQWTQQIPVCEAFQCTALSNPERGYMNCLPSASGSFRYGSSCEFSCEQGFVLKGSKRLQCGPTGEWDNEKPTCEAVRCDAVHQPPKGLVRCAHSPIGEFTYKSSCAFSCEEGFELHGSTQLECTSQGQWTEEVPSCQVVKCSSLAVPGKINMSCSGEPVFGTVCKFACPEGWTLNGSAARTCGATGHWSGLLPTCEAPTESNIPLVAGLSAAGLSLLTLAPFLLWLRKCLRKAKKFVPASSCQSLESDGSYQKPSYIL
Assay: competition ELISA on CHO cells vs sialyl Lewis ligand-PAA-biotin/SA-HRP
READOUT_LABEL: IC50 (nM)
Give just the number in nM; leave the unit off.

Please give measured IC50 of the following entry: anti-E-selectin antibody 0164 chimera (antibody, human IgG1, kappa, V domains shown, rat VH/VL on effector-null human IgG1 and human kappa) VH: EVQLQQSGAEFGKPGTSVKLSCKVSGYNIRSSYMHWVNQRPGKGLEWIGRIDPANGNTIYAEKFKIKAILTADSSSNTAYMQLSQLKSDDTAIYFCAMDLYSTSEYWGQGVMVTVSS VL: DIQMTQSPSFLSASVGDRVTINCKTSQNINRYLNWYQQKLGEAPKLLIYNANSLQTGIPSRFSASGSGTDFTLTINSLQPEDVATYFCLQDNSWPLTFGSGTKLEIKR
2.69

Please give measured IC50 of the following entry: optimized anti-E-selectin antibody 1282 (antibody, human IgG1, kappa, V domains shown, effector-null human IgG1, kappa) VH: EVQLVESGGGLVQPGGSLRLSCAASGYAIRSAYMHWVRQAPGKGLEWVARIDPANGNTIYVDSVEGRFTISADNAKNSAYLQMNSLRAEDTAVYYCAMDLYSTSEYWGQGTLVTVSS VL: DIQMTQSPSSLSASVGDRVTITCKTSQNIERYLNWYQQKPGKAPKLLIYAASSLQSGVPSRFSGSGSGTDFTLTISSLQPEDFATYFCLQDNAWPLTFGQGTKVEIKR
1.38

Please give measured IC50 of the following entry: optimized anti-E-selectin antibody 1444 (antibody, human IgG1, kappa, V domains shown, effector-null human IgG1, kappa) VH: EVQLVESGGGLVQPGGSLRLSCAASGYAIRSAYMHWVRQAPGKGLEWVARIDPANGNTIYVDSVTGRFTISADNAKNSAYLQMNSLRAEDTAVYYCAMDLYSTSEYWGQGTLVTVSS VL: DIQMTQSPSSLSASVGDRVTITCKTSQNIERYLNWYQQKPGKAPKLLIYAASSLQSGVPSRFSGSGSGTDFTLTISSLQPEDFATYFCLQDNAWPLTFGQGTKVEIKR
2.89

Please give measured IC50 of the following entry: humanized anti-E-selectin antibody 0841 (antibody, human IgG1, kappa, V domains shown, effector-null human IgG1, kappa) VH: EVQLVESGGGLVQPGGSLRLSCAASGYNIRSSYMHWVRQAPGKGLEWVARIDPANGNTIYAEKFKIRFTISADNAKNSAYLQMNSLRAEDTAVYYCAMDLYSTSEYWGQGTLVTVSS VL: DIQMTQSPSSLSASVGDRVTITCKTSQNINRYLNWYQQKPGKAPKLLIYNANSLQTGVPSRFSGSGSGTDFTLTISSLQPEDFATYFCLQDNSWPLTFGQGTKVEIKR
2.56

Please give measured IC50 of the following entry: optimized anti-E-selectin antibody 1284 (antibody, human IgG1, kappa, V domains shown, effector-null human IgG1, kappa) VH: EVQLVESGGGLVQPGGSLRLSCAASGYAIRSAYMHWVRQAPGKGLEWVARIDPANGNTIYVESVEGRFTISADNAKNSAYLQMNSLRAEDTAVYYCAMDLYSTSEYWGQGTLVTVSS VL: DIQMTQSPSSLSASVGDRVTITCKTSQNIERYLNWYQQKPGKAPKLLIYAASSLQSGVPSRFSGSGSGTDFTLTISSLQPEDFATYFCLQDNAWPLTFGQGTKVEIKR
2.77

Please give measured IC50 of the following entry: optimized anti-E-selectin antibody 1448 (antibody, human IgG1, kappa, V domains shown, effector-null human IgG1, kappa) VH: EVQLVESGGGLVQPGGSLRLSCAASGYAIRSAYMHWVRQAPGKGLEWVARIDPANGNTIYVDSVKERFTISADNAKNSAYLQMNSLRAEDTAVYYCAMDLYSTSEYWGQGTLVTVSS VL: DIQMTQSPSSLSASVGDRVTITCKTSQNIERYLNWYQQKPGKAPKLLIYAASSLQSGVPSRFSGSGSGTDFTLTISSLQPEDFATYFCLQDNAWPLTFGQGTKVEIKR
2.78
